The values you see were collected from paper PMC6718149.

Dear all, this message contains IC50 results, target or system human GTP cyclohydrolase I (Homo sapiens).
Give bare numbers, in µM.

record-smiles: O=C1CS/C(=N/N=C/c2ccc(-c3ccc(Cl)cc3)o2)N1
endpoint-result: 238

Attention now shifts to the item below.
Prompt line: Which IC50 value belongs to `Cc1ccc(OC(=S)Nc2ccc(NC(=S)Oc3ccc(C)cc3)cc2)cc1` ?
Response line: 327
